# EXPERIMENT SUMMARY: Kinetic solubility of the compound at pH 1.5 by shake flask method
# Format: physicochemical
# SETTINGS: buffer, read-out: Kinetic_solubility
# reported solubility kinetic; entries follow

Worked cases, answers included:
Cn1cc(Nc2nccc(-c3ccc4c(c3)CCCC[C@H]4NC(=O)c3nc(C(C)(C)C)no3)n2)cn1
> 50 µg/mL
Cn1cc(Nc2nccc(-c3ccc4c(c3)CN(C3COC3)CC[C@H]4NC(=O)c3cn(C(C)(C)C)nn3)n2)cn1 [BIIB-091]
> 50 µg/mL

Kindly consider the entry below.
Exercise: Could you share which solubility kinetic value was measured for `Cn1cc(Nc2nccc(-c3ccc4c(c3)CCNC[C@H]4NC(=O)c3cn(C(C)(C)C)nn3)n2)cn1` ?
Solution: > 50 µg/mL

###

# reported solubility kinetic; entries follow
# EXPERIMENT SUMMARY: Kinetic solubility of the compound at pH 1.5 by shake flask method
# Type: physicochemical
# SETTINGS: buffer, read-out: Kinetic_solubility

Worked cases, answers included:
Cc1cc(-c2ccnc(Nc3cnn(C)c3)n2)ccc1CNC(=O)N1CC(OC(C)C)C1
< 30 µg/mL
CC(C)OC1CN(C(=O)N[C@@H]2CCCCc3cc(-c4ccnc(Nc5cnn(C)c5)n4)ccc32)C1
> 30 µg/mL
COCCN1CC[C@@H](NC(=O)c2cn(C(C)(C)C)nn2)c2ccc(-c3ccnc(Nc4cnn(C)c4)n3)cc2C1
> 50 µg/mL

Kindly consider the entry below.
Exercise: Could you share which solubility kinetic value was measured for `Cn1cc(Nc2nccc(-c3ccc4c(c3)CCCC[C@H]4NC(=O)c3cn(C(C)(C)C)nn3)n2)cn1` ?
Solution: > 50 µg/mL

###

# reported IC50; entries follow
# TARGET ENTITY: Tyrosine-protein kinase BTK (Homo sapiens, UniProt Q06187)
# Sequence (Q06187 whole entry): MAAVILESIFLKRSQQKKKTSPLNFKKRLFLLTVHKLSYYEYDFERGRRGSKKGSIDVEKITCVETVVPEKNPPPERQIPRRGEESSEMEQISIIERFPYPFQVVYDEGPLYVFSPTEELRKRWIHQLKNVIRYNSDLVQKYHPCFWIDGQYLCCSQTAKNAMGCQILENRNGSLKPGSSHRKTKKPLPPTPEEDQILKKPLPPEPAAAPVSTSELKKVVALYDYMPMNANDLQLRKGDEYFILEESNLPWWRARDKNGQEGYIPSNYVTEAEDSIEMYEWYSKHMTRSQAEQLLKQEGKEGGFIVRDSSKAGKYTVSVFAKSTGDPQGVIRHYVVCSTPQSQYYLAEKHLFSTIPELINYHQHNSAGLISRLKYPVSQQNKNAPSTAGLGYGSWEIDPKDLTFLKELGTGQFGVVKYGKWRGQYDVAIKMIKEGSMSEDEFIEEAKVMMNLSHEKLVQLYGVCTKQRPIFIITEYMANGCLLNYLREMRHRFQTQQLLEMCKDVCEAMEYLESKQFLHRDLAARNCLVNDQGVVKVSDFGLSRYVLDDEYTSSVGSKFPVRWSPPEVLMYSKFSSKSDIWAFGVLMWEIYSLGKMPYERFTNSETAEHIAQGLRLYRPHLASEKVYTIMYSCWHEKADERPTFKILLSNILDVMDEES
# EXPERIMENT SUMMARY: Inhibition of human BTK using fluorescein-labeled polyGAT peptide as substrate incubated for 30 mins by FRET assay
Return type: number; implicit unit nM.

Worked cases, answers included:
C=CC(=O)Nc1cccc(Oc2nc(Nc3ccc(N4CCN(C)CC4)cc3)nc3ccoc23)c1
1
CN1CC[C@@H](NC(=O)c2cn(C(C)(C)C)nn2)c2ccc(-c3ccnc(Nc4cnn(C)c4)n3)cc2C1
0.8
Cc1c(-c2c(F)cc(C(N)=O)c3[nH]c4c(c23)CC[C@H](C(C)(C)O)C4)cccc1-n1c(=O)c2cccc(F)c2n(C)c1=O
1

Kindly consider the entry below.
Exercise: What is its IC50 for Tyrosine-protein kinase BTK (Homo sapiens, UniProt Q06187)? Entry: Cc1c(NC(=O)c2cc3c(s2)CCCC3)cccc1-c1cn(C)c(=O)c(Nc2ccc(C3CN(C)CC(=O)N3C)cc2)n1 (stereo not given)
Solution: 1

###

# EXPERIMENT SUMMARY: Solubility of the compound in FaSIF at pH 6.5
# Assay type: physicochemical
RECORDED ENDPOINT: solubility (µg/mL)
Return type: number; implicit unit µg/mL.

Exercise: Could you share which solubility value was measured for `CC(C)OC1CN(C(=O)N[C@@H]2CCCCc3cc(-c4ccnc(Nc5cnn(C)c5)n4)ccc32)C1` ?
Solution: 80

###

# EXPERIMENT SUMMARY: Oral bioavailability in Sprague-Dawley rat at 5 mg/kg
# Assay type: ADME, organism-based
# SETTINGS: in vivo
RECORDED ENDPOINT: bioavailability (%)
Return type: number; implicit unit %.

Exercise: Could you share which bioavailability value was measured for `CC(C)OC1CN(C(=O)N[C@@H]2CCCCc3cc(-c4ccnc(Nc5cnn(C)c5)n4)ccc32)C1` ?
Solution: 69
